systemName: Muscarinic acetylcholine receptor M2 (Rattus norvegicus)
Sequence (P10980 whole entry): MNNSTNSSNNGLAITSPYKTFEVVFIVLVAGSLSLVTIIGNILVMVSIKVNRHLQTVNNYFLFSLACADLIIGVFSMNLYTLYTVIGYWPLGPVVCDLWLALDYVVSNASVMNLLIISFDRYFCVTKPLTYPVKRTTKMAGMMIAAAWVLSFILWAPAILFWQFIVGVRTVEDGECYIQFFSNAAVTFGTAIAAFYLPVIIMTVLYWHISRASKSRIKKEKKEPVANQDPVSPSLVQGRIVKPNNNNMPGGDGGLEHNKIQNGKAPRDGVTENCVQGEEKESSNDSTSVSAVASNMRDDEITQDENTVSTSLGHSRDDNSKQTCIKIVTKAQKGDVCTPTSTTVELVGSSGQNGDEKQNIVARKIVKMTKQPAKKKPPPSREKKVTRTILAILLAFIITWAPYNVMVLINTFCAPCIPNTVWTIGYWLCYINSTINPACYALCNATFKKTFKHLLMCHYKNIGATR
Assign IC50 to each entry below.
Please reply with the bare figure in µM and do not write the unit itself.

The reported IC50 of the compound "CN(C)Cc1ccc(CSCCNc2cc(F)c([N+](=O)[O-])cc2[N+](=O)[O-])o1" was 7

The reported IC50 of the compound "CC(C)=NNc1cc(NCCSCc2ccc(CN(C)C)o2)c([N+](=O)[O-])cc1[N+](=O)[O-]" was 3.5

The reported IC50 of the compound "CNC(=O)Oc1ccc2c(c1)[C@]1(C)CCN(C)[C@@H]1N2C" was 160

The reported IC50 of the compound "CN(C)Cc1ccc(CSCCNc2cc(Nc3ccccc3C#N)c([N+](=O)[O-])cc2[N+](=O)[O-])o1" was 3.7

The reported IC50 of the compound "CN(C)CCNc1cc(NCCSCc2ccc(CN(C)C)o2)c([N+](=O)[O-])cc1[N+](=O)[O-]" was 0.38

----------
systemName: Muscarinic acetylcholine receptor M2 (Rattus norvegicus, UniProt P10980)
Sequence (P10980 whole entry): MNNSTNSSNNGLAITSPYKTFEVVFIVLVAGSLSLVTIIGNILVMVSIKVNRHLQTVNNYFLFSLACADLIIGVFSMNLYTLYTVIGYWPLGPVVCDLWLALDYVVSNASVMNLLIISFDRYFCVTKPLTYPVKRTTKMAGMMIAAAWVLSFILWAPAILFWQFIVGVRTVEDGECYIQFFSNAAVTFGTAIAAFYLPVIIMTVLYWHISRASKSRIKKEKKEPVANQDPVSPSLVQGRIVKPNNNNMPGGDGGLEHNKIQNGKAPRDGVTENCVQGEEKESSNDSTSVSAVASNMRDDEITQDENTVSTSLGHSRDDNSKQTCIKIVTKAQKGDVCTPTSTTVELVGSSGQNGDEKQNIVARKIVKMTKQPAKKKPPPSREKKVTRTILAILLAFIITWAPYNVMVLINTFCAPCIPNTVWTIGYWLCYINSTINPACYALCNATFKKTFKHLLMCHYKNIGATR
Assign log10 of IC50 to each entry below.
// do not treat as linear: log10 of IC50, unit µM

The reported log10 of IC50 of the compound "CN(C)Cc1ccc(CSCCNc2ccc([N+](=O)[O-])cc2[N+](=O)[O-])o1" was 0.76

The reported log10 of IC50 of the compound "CN(C)Cc1ccc(CSCCNc2ccc(F)cc2[N+](=O)[O-])o1" was 0.38

The reported log10 of IC50 of the compound "CN(C)Cc1ccc(CSCCNc2cc(NCCCN3CCOCC3)c([N+](=O)[O-])cc2[N+](=O)[O-])o1" was -0.52

The reported log10 of IC50 of the compound "CN(C)Cc1ccc(CSCCNc2cc(NCc3ccccc3)c([N+](=O)[O-])cc2[N+](=O)[O-])o1" was 0.52

The reported log10 of IC50 of the compound "CN(C)Cc1ccc(CSCCNc2cc(NCc3cccnc3)c([N+](=O)[O-])cc2[N+](=O)[O-])o1" was -0.40

The reported log10 of IC50 of the compound "CN(C)Cc1ccc(CSCCNc2cc(NCc3ccccn3)c([N+](=O)[O-])cc2[N+](=O)[O-])o1" was 0.38

The reported log10 of IC50 of the compound "CN(C)Cc1ccc(CSCCNc2cc(Nc3ccc(F)cc3)c([N+](=O)[O-])cc2[N+](=O)[O-])o1" was 0.64

The reported log10 of IC50 of the compound "CN(C)Cc1ccc(CSCCNc2cc(Nc3ccccc3)c([N+](=O)[O-])cc2[N+](=O)[O-])o1" was 0.81

The reported log10 of IC50 of the compound "CN(C)Cc1ccc(CSCCNc2cc(NN)c([N+](=O)[O-])cc2[N+](=O)[O-])o1" was 0.67

Data origin, for the record: ChEMBL document CHEMBL1125532
